experimental target: T1, Human CD137 ECD (human)
T1 construct: also called 4-1BB
T1 sequence (chain, as listed by the source limits assumed): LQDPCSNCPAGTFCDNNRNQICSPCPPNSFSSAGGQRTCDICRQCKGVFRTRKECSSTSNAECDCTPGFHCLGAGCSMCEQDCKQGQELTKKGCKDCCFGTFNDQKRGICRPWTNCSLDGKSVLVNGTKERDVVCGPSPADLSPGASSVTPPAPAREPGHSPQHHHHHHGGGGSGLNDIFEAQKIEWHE
test name: SPR, vs parent H183/L072
Measured fold change of affinity, listed per entry.
observation type: fold change of affinity (fold)

binder	observation type	numeric readout
dBBDu183H Y94N / dBBDu072L (antibody, name in Kabat numbering, V domains shown, as m1, one VH change) VH: QVQLVESGGGLVQPGRSLRLSCAASGFTFSNAWMHWVRQAPGKGLEWVAQIKDKGNAYAAYYAPSVKGRFTISRDDSKNSIYLQMNSLKTEDTAVYYCHNVHYASASTVLPAFGVDAWGQGTTVTVSS VL: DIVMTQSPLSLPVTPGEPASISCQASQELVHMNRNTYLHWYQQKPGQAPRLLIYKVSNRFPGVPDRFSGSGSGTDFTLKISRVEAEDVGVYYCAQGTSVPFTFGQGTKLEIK	fold change of affinity	0.1
dBBDu183H D101S / dBBDu072L (antibody, name in Kabat numbering, V domains shown, as m1, one VH change) VH: QVQLVESGGGLVQPGRSLRLSCAASGFTFSNAWMHWVRQAPGKGLEWVAQIKDKGNAYAAYYAPSVKGRFTISRDDSKNSIYLQMNSLKTEDTAVYYCHYVHYASASTVLPAFGVSAWGQGTTVTVSS VL: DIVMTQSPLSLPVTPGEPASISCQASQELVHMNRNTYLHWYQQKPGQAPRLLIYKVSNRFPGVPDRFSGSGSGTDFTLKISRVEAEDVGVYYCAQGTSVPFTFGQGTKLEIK	fold change of affinity	3.3
dBBDu183H D101E / dBBDu072L (antibody, name in Kabat numbering, V domains shown, as m1, one VH change) VH: QVQLVESGGGLVQPGRSLRLSCAASGFTFSNAWMHWVRQAPGKGLEWVAQIKDKGNAYAAYYAPSVKGRFTISRDDSKNSIYLQMNSLKTEDTAVYYCHYVHYASASTVLPAFGVEAWGQGTTVTVSS VL: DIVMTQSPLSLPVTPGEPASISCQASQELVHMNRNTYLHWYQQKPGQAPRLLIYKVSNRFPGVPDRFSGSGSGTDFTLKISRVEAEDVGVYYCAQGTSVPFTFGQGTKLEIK	fold change of affinity	2.2
